# tested.system: Caspase 3 (Homo sapiens, UniProt P42574)
# Sequence (P42574 29-175 limits assumed): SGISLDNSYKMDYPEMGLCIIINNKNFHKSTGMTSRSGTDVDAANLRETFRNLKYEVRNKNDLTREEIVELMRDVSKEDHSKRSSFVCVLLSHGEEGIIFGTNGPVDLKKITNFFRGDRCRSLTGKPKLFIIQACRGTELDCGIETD
# Sequence (P42574 176-277 limits assumed): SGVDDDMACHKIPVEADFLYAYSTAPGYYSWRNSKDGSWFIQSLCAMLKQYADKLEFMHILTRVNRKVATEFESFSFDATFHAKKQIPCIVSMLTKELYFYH
# experimental.protocol: Reaction Biology caspase panel
# Assay type: biochemical
# test.settings: read-out: Caspase 3 IC50; (Z-DEVD)2-R110 substrate; three separate experiments
pIC50: −log10 of the molar value.
readout: pIC50

## Input // pIC50 lookup, key: CC(C)(C)[C@H](NC(=O)c1ccc(N)c(Cl)c1)C(=O)N1CCC[C@H]1C(=O)N[C@H](C=O)CC(=O)O [Compound 2b, reference compound]
## Output < 5.00

---

# tested.system: UniProt:P31944
# Sequence (P31944 6-146 limits assumed): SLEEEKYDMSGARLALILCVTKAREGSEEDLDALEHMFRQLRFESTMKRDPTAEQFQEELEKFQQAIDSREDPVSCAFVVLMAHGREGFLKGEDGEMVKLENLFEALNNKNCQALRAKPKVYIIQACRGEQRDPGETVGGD
# Sequence (P31944 153-242 limits assumed): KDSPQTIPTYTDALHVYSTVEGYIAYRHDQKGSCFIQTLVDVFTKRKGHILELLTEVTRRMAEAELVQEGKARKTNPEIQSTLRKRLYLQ
# experimental.protocol: Reaction Biology caspase panel
# Assay type: biochemical
pIC50: −log10 of the molar value.
readout: pIC50

// known answers, use as guide
- CC(C)(C)[C@H](NC(=O)c1ccc(N)c(Cl)c1)C(=O)N1CCC[C@H]1C(=O)N[C@H](C#N)CC(=O)O: 6.10
- CC(C)(C)[C@H](NC(=O)c1ccc(N)c(Cl)c1)C(=O)N1CCC[C@H]1C(=O)N[C@H](C#N)Cc1nnn[nH]1: < 5.00

## Input // pIC50 lookup, key: CCOC(=O)C[C@@H](C#N)NC(=O)[C@@H]1CCCN1C(=O)[C@@H](NC(=O)c1ccc(N)c(Cl)c1)C(C)(C)C
## Output < 5.00

---

# tested.system: Caspase 7 (Homo sapiens, UniProt P55210)
# Sequence (P55210 24-198 limits assumed): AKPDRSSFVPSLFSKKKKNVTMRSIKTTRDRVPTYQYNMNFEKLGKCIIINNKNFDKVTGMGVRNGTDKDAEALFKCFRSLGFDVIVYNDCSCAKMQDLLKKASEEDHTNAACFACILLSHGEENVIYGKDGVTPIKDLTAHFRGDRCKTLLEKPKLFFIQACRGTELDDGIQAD
# Sequence (P55210 207-303 limits assumed): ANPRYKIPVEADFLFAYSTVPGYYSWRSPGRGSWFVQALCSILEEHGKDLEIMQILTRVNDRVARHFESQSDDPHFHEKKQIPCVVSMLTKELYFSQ
# experimental.protocol: Reaction Biology caspase panel
# Assay type: biochemical
# test.settings: read-out: Caspase 7 IC50; (Z-DEVD)2-R110 substrate; three separate experiments
pIC50: −log10 of the molar value.
readout: pIC50

## Input Form field - read-out: pIC50; system: Caspase 7 (Homo sapiens, UniProt P55210); submitted item: CC(C)(C)[C@H](NC(=O)c1ccc(N)c(Cl)c1)C(=O)N1CCC[C@H]1C(=O)N[C@H](C=O)CC(=O)O [Compound 2b, reference compound]
## Output < 5.00

---

# experimental.protocol: Microsomal stability
# Assay type: in vitro ADME, human
# test.settings: human, liver microsomes, Microsomal Stability t1/2, human liver microsomes
Would you kindly list half-life for each of these molecules?
One number for each entry, in h.

// known answers, use as guide
* CCOC(=O)C[C@@H](C#N)NC(=O)[C@@H]1CCCN1C(=O)[C@@H](NC(=O)c1ccc(N)c(Cl)c1)C(C)(C)C [Compound 3] | 0.845
* CC(C)(C)[C@H](NC(=O)c1ccc(N)c(Cl)c1)C(=O)N1CCC[C@H]1C(=O)N[C@H](C#N)CC(=O)O [Compound 4] | 2.23

// moving on: another record for half-life
## Input // half-life lookup, key: CC(C)(C)[C@H](NC(=O)c1ccc(N)c(Cl)c1)C(=O)N1CCC[C@H]1C(=O)N[C@H](C#N)Cc1nnn[nH]1 [Compound 16]
## Output 2.47

---

# tested.system: Caspase 8 (Homo sapiens)
# Sequence (Q14790 217-374 limits assumed): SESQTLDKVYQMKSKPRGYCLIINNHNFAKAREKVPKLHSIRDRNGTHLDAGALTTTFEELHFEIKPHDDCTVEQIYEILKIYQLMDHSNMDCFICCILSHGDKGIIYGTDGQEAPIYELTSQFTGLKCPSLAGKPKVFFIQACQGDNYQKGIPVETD
# Sequence (Q14790 385-479 limits assumed): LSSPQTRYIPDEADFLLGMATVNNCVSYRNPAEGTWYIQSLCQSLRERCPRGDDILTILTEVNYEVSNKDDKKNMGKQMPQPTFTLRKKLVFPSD
# experimental.protocol: Reaction Biology caspase panel
# Assay type: biochemical
# test.settings: read-out: Caspase 8 IC50; (Z-LEHD)2-R110 substrate; three separate experiments
readout: IC50 (nM)
One number for each entry, in nM.

## Input // IC50 lookup, key: CC(C)(C)[C@H](NC(=O)c1ccc(N)c(Cl)c1)C(=O)N1CCC[C@H]1C(=O)N[C@H](C=O)CC(=O)O [Compound 2b, reference compound]
## Output 3.3

---

# experimental.protocol: Bi-directional Caco-2 permeability
# Type: in vitro ADME
# test.settings: human
readout: Papp B→A (×10⁻⁶ cm/s)
One number for each entry, in ×10⁻⁶ cm/s.

For every item in the list below, what is its measured Papp B→A?
1. CCOC(=O)C[C@@H](C#N)NC(=O)[C@@H]1CCCN1C(=O)[C@@H](NC(=O)c1ccc(N)c(Cl)c1)C(C)(C)C
2. CCO[C@@H]1OC(=O)C[C@@H]1NC(=O)[C@@H]1CCCN1C(=O)[C@@H](NC(=O)c1ccc(N)c(Cl)c1)C(C)(C)C [Compound 1, reference compound]
3. CC(C)(C)[C@H](NC(=O)c1ccc(N)c(Cl)c1)C(=O)N1CCC[C@H]1C(=O)N[C@H](C#N)Cc1nnn[nH]1

## Output
1. 9.59
2. 32.7
3. 0.193

## Input // Papp B→A lookup, key: CC(C)(C)[C@H](NC(=O)c1ccc(N)c(Cl)c1)C(=O)N1CCC[C@H]1C(=O)N[C@H](C#N)CC(=O)O
## Output 0.06

---

# tested.system: caspase 1 (Homo sapiens, UniProt P29466)
# Sequence (P29466 120-297 limits assumed): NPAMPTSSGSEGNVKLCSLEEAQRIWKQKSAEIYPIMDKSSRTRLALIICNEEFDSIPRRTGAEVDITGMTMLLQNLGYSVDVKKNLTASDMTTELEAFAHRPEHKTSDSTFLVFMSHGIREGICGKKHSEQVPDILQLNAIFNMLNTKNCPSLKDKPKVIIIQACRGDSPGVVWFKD
# Sequence (P29466 317-404 limits assumed): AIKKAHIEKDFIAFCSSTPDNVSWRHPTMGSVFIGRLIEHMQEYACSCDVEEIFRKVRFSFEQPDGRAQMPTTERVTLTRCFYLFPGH
# experimental.protocol: Caspase 1 fluorescence assay, Ac-LEHD-AMC substrate, 2 nM enzyme
# Type: biochemical
readout: Ki

## Input // Ki lookup, key: CC(C)(C)[C@H](NC(=O)c1ccc(N)c(Cl)c1)C(=O)N1CCC[C@H]1C(=O)N[C@H](C#N)CC(=O)O
## Output 400 pM

---

# tested.system: caspase 1 (Homo sapiens, UniProt P29466)
# experimental.protocol: Reaction Biology caspase panel
# Assay type: biochemical
# test.settings: read-out: Caspase 1 IC50; (Z-LEHD)2-R110 substrate; three separate experiments
readout: pIC50
One number for each entry, as −log10 of the molar value.

## Input // pIC50 lookup, key: CC(C)(C)[C@H](NC(=O)c1ccc(N)c(Cl)c1)C(=O)N1CCC[C@H]1C(=O)N[C@H](C=O)CC(=O)O [Compound 2b, reference compound]
## Output 9.69

---

# tested.system: Caspase 10 (Homo sapiens)
# Sequence (Q92851 220-415 limits assumed): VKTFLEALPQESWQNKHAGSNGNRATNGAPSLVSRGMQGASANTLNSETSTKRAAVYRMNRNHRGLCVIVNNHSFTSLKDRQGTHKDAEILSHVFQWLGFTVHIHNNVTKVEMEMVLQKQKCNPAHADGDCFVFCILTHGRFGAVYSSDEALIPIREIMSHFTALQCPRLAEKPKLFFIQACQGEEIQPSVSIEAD
# Sequence (Q92851 416-521 limits assumed): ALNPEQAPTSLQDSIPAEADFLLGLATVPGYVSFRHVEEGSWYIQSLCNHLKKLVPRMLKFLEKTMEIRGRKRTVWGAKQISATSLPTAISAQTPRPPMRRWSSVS
# experimental.protocol: Reaction Biology caspase panel
# Type: biochemical
# test.settings: read-out: Caspase 10 IC50; (Z-LEHD)2-R110 substrate; three separate experiments
readout: pIC50
Numbers only, as −log10 of the molar value.

## Input // pIC50 lookup, key: CC(C)(C)[C@H](NC(=O)c1ccc(N)c(Cl)c1)C(=O)N1CCC[C@H]1C(=O)N[C@H](C=O)CC(=O)O [Compound 2b, reference compound]
## Output 7.18

---

# tested.system: Caspase 7 (Homo sapiens, UniProt P55210)
# experimental.protocol: Reaction Biology caspase panel
# Type: biochemical
readout: IC50

// known answers, use as guide
- CC(=O)N[C@@H](CC(=O)O)C(=O)N[C@@H](CCC(=O)O)C(=O)N[C@H](C(=O)N[C@H](C=O)CC(=O)O)C(C)C [Ac-DEVD-CHO, reference compound]: 0.00354 µM
- CCOC(=O)C[C@@H](C#N)NC(=O)[C@@H]1CCCN1C(=O)[C@@H](NC(=O)c1ccc(N)c(Cl)c1)C(C)(C)C [Compound 3]: > 10 µM
- CC(C)(C)[C@H](NC(=O)c1ccc(N)c(Cl)c1)C(=O)N1CCC[C@H]1C(=O)N[C@H](C#N)Cc1nnn[nH]1 [Compound 16]: > 10 µM

## Input // IC50 lookup, key: CC(C)(C)[C@H](NC(=O)c1ccc(N)c(Cl)c1)C(=O)N1CCC[C@H]1C(=O)N[C@H](C#N)CC(=O)O [Compound 4]
## Output > 10 µM

---

# tested.system: Caspase 8 (Homo sapiens)
# experimental.protocol: Reaction Biology caspase panel
# Assay type: biochemical
pIC50: −log10 of the molar value.
Would you kindly list pIC50 for each of these compounds?

// known answers, use as guide
* CC(C)(C)[C@H](NC(=O)c1ccc(N)c(Cl)c1)C(=O)N1CCC[C@H]1C(=O)N[C@H](C#N)CC(=O)O [Compound 4] | 7.60
* CCOC(=O)C[C@@H](C#N)NC(=O)[C@@H]1CCCN1C(=O)[C@@H](NC(=O)c1ccc(N)c(Cl)c1)C(C)(C)C [Compound 3] | < 5.00

// moving on: another record for pIC50
## Input // pIC50 lookup, key: CC(C)(C)[C@H](NC(=O)c1ccc(N)c(Cl)c1)C(=O)N1CCC[C@H]1C(=O)N[C@H](C#N)Cc1nnn[nH]1 [Compound 16]
## Output < 5.00
